# Tested on: SK-MEL-5 melanoma
# protocolNotes: NCI tumour cell line growth inhibition, 48 h; in the data active = GI50 below about 0.43 µM; inactive = the rest
Bench note: report the call from 1.0 (active), 0.0 (inactive)

CCCN(CCS(C)(=O)=O)Cc1ccc(-c2ccc3ncnc(Nc4ccc(OCc5cccc(F)c5)c(Cl)c4)c3c2)o1: 0.0
O=C1c2c(c3c4ccccc4[nH]c3c3ccc4ccccc4c23)C(=O)N1CCN1CCNCC1: 0.0
CCCCCCCCCCCCCCCCCC1=NCCN1CCOC1=C(Cl)C(=O)c2ccccc2C1=O: 0.0

# fetch the recorded call for C/C(=C\c1ccc2ccccc2c1)[N+](=O)[O-] here
0.0

Give the logged outcome of this assay for the following compound: CCOc1ccccc1C(=O)N1CCN(c2cc(Cl)cc(Cl)c2)CC1
1.0

###

# Test system: DMS 273 small cell lung
# protocolNotes: NCI tumour cell line growth inhibition, 48 h
property: TGI (µM)
Provide only the numeric value, understood in µM.

Example entries begin here.
CC1(O)C=CC(=O)C=C1: 38.5
CCn1c2ccccc2c2ccc3c(c21)C(=O)C=CC3=O: 33.8
Cc1ccc(/C=C/C(=O)C(C)(C)CN2CCCCC2)cc1: 11.7
CCCCCCCOc1ccc(/C=C\c2cc[n+](CCCCCCCC[n+]3ccc(/C=C\c4ccc(OCCCCCCC)cc4)cc3)cc2)cc1: 71.1

For the next question, use this compound.
Given O=C(CCl)NNC1=Nc2ccc(Cl)cc2SC1 , state its recorded TGI.
8.29

###

# Test system: COLO 205 colon
# protocolNotes: NCI tumour cell line growth inhibition, 48 h
Quick list: TGI per entry.

Reference set, count: 6
O=C1OC(Cc2ccccc2)(N2CCCC2=O)C1c1ccccc1 (stereo unspecified): > 100 µM
Cc1cc(S(=O)(=O)/N=C(/N)Nc2ccccc2O)c(SCc2ccccc2)cc1Cl: 47.8 µM
C=C(Br)CNC(=O)Nc1ccc(Cl)c(Cl)c1: 30.6 µM
CC/C=C\C/C=C\C/C=C\CCCCCCCC(=O)OCC(O)CO (stereo unspecified): > 100 µM
OCc1ccc(N2CCCC2c2ccccc2)cc1Cl (stereo unspecified): 11.8 µM
C=CC[C@@H](N)C(=O)N(C)[C@@H](C)[C@@H](O)c1ccccc1: > 100 µM

Quick one: TGI of CCCP1(=O)C=C(C)C(=C(Cl)Cl)C(C)=C1 (stereo unspecified) ?
> 100 µM

So what's the measured TGI for this one? Cc1[nH]c2ccccc2c1C(=O)CC1(O)C(=O)Nc2c(Cl)cc(Cl)cc21 (stereo unspecified)
61.7 µM

Given the entry CCOC(=O)C1C(c2ccc3c(c2)OCO3)c2c([nH][nH]c2=O)CC1(C)O (stereo unspecified) , report its measured TGI.
> 100 µM

Fill blank: measured TGI of the molecule COc1cc2c(cc1C1COc3cc4occc4cc3C1=O)OCO2 (stereo unspecified) is ____.
> 100 µM

What measured TGI goes with CC1(C)OC(=O)C(C#N)=C1/C=C/c1coc2ccc(Cl)cc2c1=O ?
> 100 µM

###

# Tested on: OVCAR-5 ovarian
# protocolNotes: NCI tumour cell line growth inhibition, 48 h; in the data active = GI50 below about 0.43 µM; inactive = the rest
// allowed return values: TRUE (active), FALSE (inactive)

Consider the worked cases shown below.
O=[N+]([O-])c1ccc(C=Cc2ccccc2)cc1.[C-]#[O+].[C-]#[O+].[C-]#[O+].[Cr]: FALSE
FC(F)(F)c1ccc(-c2cnc(-c3ncon3)nc2NC2CCCCCC2)cc1: FALSE
COc1cc2nc(N3CCCC3)nc(NCCc3ccccc3)c2cc1OC: FALSE

I'd appreciate the recorded outcome for O=C(OCc1ccc2ccccc2n1)c1cn(C2CC2)c2cc(N3CCN(Cc4ccc5ccccc5n4)CC3)c(F)cc2c1=O from this test.
FALSE

Check the results log: what was the call for CN(C)CCCn1c(=O)c2ccccc2c2ccccc21 ?
FALSE

Record lookup: outcome of this test for COc1ccc(-c2nc(Nc3cc(C)[nH]n3)c3ccccc3n2)cc1 ?
FALSE

I would be grateful if you could indicate the recorded call for O=C1C(=C([O-])c2ccccc2)C(=O)c2ccccc21.O=C1C(=C([O-])c2ccccc2)C(=O)c2ccccc21.[Fe+2] .
FALSE

Name the outcome recorded for CN1C(=O)N(C)C2C1NN=c1s/c(=C\c3ccc(C(F)(F)F)cc3)c(=O)n12 (stereo unspecified) in the assay.
FALSE

Please share the test call associated with Cc1ccc(/C=N\NC(=O)c2[nH]c3ccc(F)cc3c2-c2ccccc2)cc1 .
TRUE

Could you check what this test reported for O=C1OCC2=C1C(c1ccc(Cl)c(Cl)c1)c1cc3c(cc1N2CCO)OCCO3 (stereo unspecified) ?
FALSE

GET /call?item= CCCCCCCCCCCCCCCCCC1=NCCN1CCOC1=C(Cl)C(=O)c2ccccc2C1=O returns the recorded outcome of this test.
FALSE

// return assay outcome for CC(C)C[C@H](NC(=O)CNC(=O)c1cc(Cl)ccc1Cl)B1OC(=O)CC(CC(=O)O)(C(=O)O)O1 (stereo partly specified)
TRUE

Assay result, entry Fc1ccc(/C=N/n2c(-c3ccc(F)c(Cl)c3)nn(CNc3ccccc3C(F)(F)F)c2=S)cc1 — outcome?
FALSE
